Answer each item with its documented MIC.
Tested on: Sh. flexneri, 2a5503

Past entries and their recorded results:
O=C(O)c1cn(C2CC2)c2nc(N3CCC(O)C3)c(F)cc2c1=O (centres unmarked) :: ≤ 0.05 µg/mL
O=C(O)c1cn(C2CC2)c2nc(N3CCCNCC3)c(F)cc2c1=O :: ≤ 0.05 µg/mL
O=C(O)c1cn(C2CC2)c2nc(N3CCNCC3)c(F)cc2c1=O :: ≤ 0.05 µg/mL
CC1CN(c2nc3c(cc2F)c(=O)c(C(=O)O)cn3C2CC2)CCN1 (centres unmarked) :: ≤ 0.05 µg/mL

For each of the compounds below, state MIC.
1. NC1CCN(c2nc3c(cc2F)c(=O)c(C(=O)O)cn3C2CC2)C1 (centres unmarked)
2. CCn1cc(C(=O)O)c(=O)c2cc(F)c(N3CCNCC3)nc21 [Control Compound, reference compound]
3. CN1CCCN(c2nc3c(cc2F)c(=O)c(C(=O)O)cn3C2CC2)CC1
4. CN1CCN(c2nc3c(cc2F)c(=O)c(C(=O)O)cn3C2CC2)CC1

Reply:
["≤ 0.05 µg/mL", "0.2 µg/mL", "0.1 µg/mL", "≤ 0.05 µg/mL"]

The measurements presented in this section are drawn from patent EP0160578A1.
